Tested on: compound-treated mice
Assay: Neuropharmacological assay (SmartCube): behavioral activity signature and minimal effective dose
Assay type: in vivo
Conditions: i.p. 15 min before test, most efficacious dose(s)
Measured Property: AG: analgesic (probability of activity signature)

>  <Compound>
Cc1ccc2c(c1)C(N)C(C)(C)COC2.Cl (centres unmarked)

>  <Recorded Measurement>
++ (5% ≤ ++ <25%)

$$$$
>  <Compound>
Cc1ccc2c(c1)CCOCC2N.Cl (centres unmarked)

>  <Recorded Measurement>
++ (5% ≤ ++ <25%)

$$$$
>  <Compound>
C[C@@H]1OCc2cccc(Cl)c2[C@H]1N (single isomer, unassigned)

>  <Recorded Measurement>
++ (5% ≤ ++ <25%)

$$$$
>  <Compound>
C[C@@H]1OCc2c(F)cccc2[C@@H]1N.Cl

>  <Recorded Measurement>
++ (5% ≤ ++ <25%)

$$$$
>  <Compound>
Cl.NC1COCc2ccc3c(c21)C1CCC3C1 (single isomer, unassigned) [Example 163]

>  <Recorded Measurement>
++ (5% ≤ ++ <25%)

$$$$
>  <Compound>
C[C@@H]1OC[C@H](N)c2ccccc21.Cl (relative stereo)

>  <Recorded Measurement>
++ (5% ≤ ++ <25%)

$$$$
>  <Compound>
Cl.NC1COCc2ccc3ccccc3c21 (centres unmarked)

>  <Recorded Measurement>
++ (5% ≤ ++ <25%)

$$$$
>  <Compound>
CC[C@@H]1OCc2ccccc2[C@@H]1N(C)C.Cl (single isomer, unassigned)

>  <Recorded Measurement>
+ (LOQ ≤ + <5%)

$$$$
>  <Compound>
Cl.NC1COCc2cc(Cl)ccc21 (centres unmarked)

>  <Recorded Measurement>
++ (5% ≤ ++ <25%)

$$$$
>  <Compound>
C#CCN[C@H]1c2ccccc2CO[C@H]1C.Cl

>  <Recorded Measurement>
+ (LOQ ≤ + <5%)

$$$$
>  <Compound>
COc1ccc2c(c1)[C@H](N)[C@H](C)OC2.Cl

>  <Recorded Measurement>
++ (5% ≤ ++ <25%)

$$$$
>  <Compound>
Cl.NC1COCc2ccc(Cl)cc21 (centres unmarked) [Example 1, 6-Chloroisochroman-4-amine hydrochloride]

>  <Recorded Measurement>
++ (5% ≤ ++ <25%)

$$$$
>  <Compound>
CC(C)(C)c1ccc2c(c1)C(N)COC2.Cl (centres unmarked)

>  <Recorded Measurement>
+ (LOQ ≤ + <5%)

$$$$
>  <Compound>
Cc1cccc2c1COCC2N.Cl (centres unmarked)

>  <Recorded Measurement>
++ (5% ≤ ++ <25%)

$$$$
>  <Compound>
C[C@H]1OCc2ccc3ccccc3c2[C@@H]1N.Cl (single isomer, unassigned)

>  <Recorded Measurement>
++ (5% ≤ ++ <25%)

$$$$
>  <Compound>
CC[C@@H]1OCc2ccc(C)cc2[C@@H]1N.Cl (relative stereo)

>  <Recorded Measurement>
++ (5% ≤ ++ <25%)

$$$$
>  <Compound>
Cc1ccc2c(c1)CO[C@H](C)[C@@H]2N

>  <Recorded Measurement>
+ (LOQ ≤ + <5%)

$$$$
>  <Compound>
CC(C)[C@@H]1OCc2ccccc2[C@H]1N.Cl (relative stereo) [Example 257]

>  <Recorded Measurement>
+ (LOQ ≤ + <5%)

$$$$
>  <Compound>
CN[C@@H]1COCc2ccc(C)cc21

>  <Recorded Measurement>
++ (5% ≤ ++ <25%)

$$$$
>  <Compound>
Cc1ccc2c(c1)C(N)COC2.Cl (centres unmarked)

>  <Recorded Measurement>
++ (5% ≤ ++ <25%)

$$$$

###

Test system: compound-treated mice
Test: Neuropharmacological assay (SmartCube): behavioral activity signature and minimal effective dose
Type: in vivo
Details: i.p. 15 min before test, most efficacious dose(s)
Measured Property: CE: cognitive enhancer (probability of activity signature)

>  <Molecule>
CN[C@@H]1COCc2c(Cl)cccc21 [Example 149]

>  <Recorded Measurement>
++ (5% ≤ ++ <25%)

$$$$
>  <Molecule>
COc1ccc2c(c1)[C@H](N)[C@@H](C)OC2 (single isomer, unassigned) [Example 171]

>  <Recorded Measurement>
++ (5% ≤ ++ <25%)

$$$$
>  <Molecule>
C[C@@H]1OCc2ccc(F)cc2[C@@H]1N.Cl [Example 88]

>  <Recorded Measurement>
++ (5% ≤ ++ <25%)

$$$$
>  <Molecule>
CCN(C)C(=O)Oc1ccc2c(c1)CO[C@H](C)[C@H]2N.Cl [Example 280]

>  <Recorded Measurement>
++ (5% ≤ ++ <25%)

$$$$
>  <Molecule>
CCN(C)C(=O)Oc1ccc2c(c1)COCC2N(C)C.Cl (stereo not shown) [Example 283]

>  <Recorded Measurement>
+ (LOQ ≤ + <5%)

$$$$
>  <Molecule>
CC[C@H]1OCc2ccc(C)cc2[C@@H]1N (single isomer, unassigned) [Example 177]

>  <Recorded Measurement>
++ (5% ≤ ++ <25%)

$$$$
>  <Molecule>
CCNC1COCc2ccc(C)c(C)c21.Cl (stereo not shown) [Example 58]

>  <Recorded Measurement>
++ (5% ≤ ++ <25%)

$$$$
>  <Molecule>
C#CCN[C@H]1COCc2ccccc21.Cl [Example 266]

>  <Recorded Measurement>
+ (LOQ ≤ + <5%)

$$$$
>  <Molecule>
C[C@@H]1OC[C@@H](N)c2cc(F)ccc21.Cl [Example 206]

>  <Recorded Measurement>
++ (5% ≤ ++ <25%)

$$$$
>  <Molecule>
CN[C@@H]1COCc2cccc(C)c21 (single isomer, unassigned) [Example 137]

>  <Recorded Measurement>
++ (5% ≤ ++ <25%)

$$$$
>  <Molecule>
CC[C@@H]1OCc2ccccc2[C@@H]1N(C)C.Cl (single isomer, unassigned) [Example 260]

>  <Recorded Measurement>
+ (LOQ ≤ + <5%)

$$$$
>  <Molecule>
Cc1ccc2c(c1)CO[C@H](C)[C@H]2N.Cl [Example 96]

>  <Recorded Measurement>
++ (5% ≤ ++ <25%)

$$$$
>  <Molecule>
Cc1cccc2c1[C@H](N)CO[C@@H]2C [Example 226]

>  <Recorded Measurement>
++ (5% ≤ ++ <25%)

$$$$
>  <Molecule>
Cc1ccc(C)c2c1COCC2N.Cl (stereo not shown) [Example 47]

>  <Recorded Measurement>
++ (5% ≤ ++ <25%)

$$$$
>  <Molecule>
Cl.NC1COCc2cc(Cl)ccc21 (stereo not shown) [Example 2]

>  <Recorded Measurement>
+ (LOQ ≤ + <5%)

$$$$
>  <Molecule>
Cc1cccc2c1C(N)COC2.Cl (stereo not shown) [Example 21, 5-Methylisochroman-4-amine hydrochloride]

>  <Recorded Measurement>
++ (5% ≤ ++ <25%)

$$$$
>  <Molecule>
CCN(C)C(=O)Oc1ccc2c(c1)C(N)COC2.Cl (stereo not shown) [Example 277]

>  <Recorded Measurement>
+ (LOQ ≤ + <5%)

$$$$
>  <Molecule>
CC[C@H]1OCc2ccccc2[C@@H]1N (single isomer, unassigned) [Example 193]

>  <Recorded Measurement>
++ (5% ≤ ++ <25%)

$$$$
>  <Molecule>
C[C@H]1OCc2ccc3ccccc3c2[C@@H]1N.Cl (single isomer, unassigned) [Example 90]

>  <Recorded Measurement>
++ (5% ≤ ++ <25%)

$$$$

###

System: compound-treated mice
Assay: Neuropharmacological assay (SmartCube): behavioral activity signature and minimal effective dose
Assay type: in vivo
Conditions: i.p. 15 min before test, most efficacious dose(s)
Measured Property: CE: cognitive enhancer (probability of activity signature)

>  <Compound>
Cc1ccc(Cl)c2c1[C@H](N)[C@H](C)OC2.Cl

>  <Recorded Measurement>
++ (5% ≤ ++ <25%)

$$$$
>  <Compound>
Cc1ccc2c(c1)[C@H](N)CO[C@@H]2C.Cl

>  <Recorded Measurement>
++ (5% ≤ ++ <25%)

$$$$
>  <Compound>
CC1(C)OCC(N)c2ccccc21.Cl (stereo not drawn)

>  <Recorded Measurement>
+ (LOQ ≤ + <5%)

$$$$
>  <Compound>
C[C@@H]1OCc2c(Cl)cccc2[C@@H]1N.Cl

>  <Recorded Measurement>
++ (5% ≤ ++ <25%)

$$$$
>  <Compound>
CC[C@H]1OCc2ccccc2[C@@H]1NC.Cl

>  <Recorded Measurement>
+ (LOQ ≤ + <5%)

$$$$

###

System: compound-treated mice
Assay: Neuropharmacological assay (SmartCube): behavioral activity signature and minimal effective dose
Format: in vivo
Conditions: i.p. 15 min before test, most efficacious dose(s)
Measured Property: CE: cognitive enhancer (probability of activity signature)

>  <Compound>
Cc1ccc(Cl)c2c1[C@@H](N)COC2 (single isomer, unassigned) [Example 176]

>  <Test System>
compound-treated mice

>  <Recorded Measurement>
++ (5% ≤ ++ <25%)

$$$$
>  <Compound>
N[C@@H]1COCc2ccccc21 (single isomer, unassigned) [Example 111]

>  <Test System>
compound-treated mice

>  <Recorded Measurement>
++ (5% ≤ ++ <25%)

$$$$
>  <Compound>
N[C@@H]1COCc2ccc(Cl)c(Cl)c21 (single isomer, unassigned) [Example 119]

>  <Test System>
compound-treated mice

>  <Recorded Measurement>
++ (5% ≤ ++ <25%)

$$$$
>  <Compound>
Cc1cccc2c1COC[C@@H]2N (single isomer, unassigned) [Example 130]

>  <Test System>
compound-treated mice

>  <Recorded Measurement>
++ (5% ≤ ++ <25%)

$$$$
>  <Compound>
Cc1ccc2c(c1)[C@@H](N)[C@@H](C)OC2 (single isomer, unassigned) [Example 158]

>  <Test System>
compound-treated mice

>  <Recorded Measurement>
++ (5% ≤ ++ <25%)

$$$$
>  <Compound>
CN[C@H]1COCc2ccc(OC)cc21 [Example 140]

>  <Test System>
compound-treated mice

>  <Recorded Measurement>
++ (5% ≤ ++ <25%)

$$$$
>  <Compound>
C[C@@H]1OCc2cc(F)ccc2[C@@H]1N.Cl (single isomer, unassigned) [Example 212]

>  <Test System>
compound-treated mice

>  <Recorded Measurement>
+ (LOQ ≤ + <5%)

$$$$
>  <Compound>
C[C@H]1OCc2ccc(F)cc2[C@@H]1N.Cl [Example 89]

>  <Test System>
compound-treated mice

>  <Recorded Measurement>
++ (5% ≤ ++ <25%)

$$$$
>  <Compound>
C[C@H]1OCc2ccc3c(c2[C@@H]1N)CCCC3.Cl [Example 197]

>  <Test System>
compound-treated mice

>  <Recorded Measurement>
+ (LOQ ≤ + <5%)

$$$$

The measurements presented in this section are drawn from patent US11077090B2.
